Source: patent US20220033501A1

subject of test: T1, monkey TIM-3 protein with hFc tag (cTIM-3-hFc protein) (monkey; human)
T1 construct: Made in HEK293 cells; also called monkey TIM-3 extracellular domain protein; not shown: human IgG Fc fragment (hFc) of the pCpC vector
T1 chain: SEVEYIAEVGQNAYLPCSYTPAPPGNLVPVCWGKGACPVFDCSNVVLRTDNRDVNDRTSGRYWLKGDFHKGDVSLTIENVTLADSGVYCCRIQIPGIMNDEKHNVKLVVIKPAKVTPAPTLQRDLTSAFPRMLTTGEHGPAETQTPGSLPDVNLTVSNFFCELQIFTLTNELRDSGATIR
assay protocol: ELISA, coated cTIM-3-hFc; antibody 0.6667 nM

binder	OD450
34B6D8 (TIM-3 antibody purified from hybridoma, chimeric antibody of Example 2) (antibody, V domains shown, From hybridoma of Harbour H2L2 transgenic mice: human variable regions, rat constant regions) VH: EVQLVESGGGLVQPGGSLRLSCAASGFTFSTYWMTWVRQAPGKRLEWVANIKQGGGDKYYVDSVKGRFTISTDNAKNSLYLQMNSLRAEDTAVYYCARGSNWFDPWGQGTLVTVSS VL: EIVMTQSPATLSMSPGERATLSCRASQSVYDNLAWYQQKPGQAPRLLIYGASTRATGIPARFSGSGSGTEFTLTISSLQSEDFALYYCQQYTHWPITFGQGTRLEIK	3.44
